B1: PPFIA4 (parent)
chain: VMTLPSDLRKHRRKLLSPVSREEN

Variants of: B1
PROCEDURE DETAILS: protein stability index of a GFP-peptide fusion (GPS, HEK-293T) (PSI 1-6); higher = more stable;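 also: lentivirally expressed fusions sorted by FACS into six bins by GFP to DsRed ratio, PSI derived from sequencing read proportions per bin multiplied by bin number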
CONDITION SUMMARY: c terminus: a fixed tail appended
EXPERIMENTAL READOUT: protein stability index
The reply should be a number, written without any unit.

Lab book: protein stability index of R9H noted as 3.9

Lab book: protein stability index of R9M noted as 3.53

Lab book: protein stability index of R12P noted as 4.34

Lab book: protein stability index of T3R noted as 3.07

Lab book: protein stability index of S6G noted as 3.65

Lab book: protein stability index of M2V noted as 3.46

Lab book: protein stability index of E22I noted as 3.02

Lab book: protein stability index of P18S noted as 4.07

Lab book: protein stability index of K10E noted as 3.48
